- target-or-system: PDZRN4_1, Q6ZMN7
- Sequence (Q6ZMN7 213-318): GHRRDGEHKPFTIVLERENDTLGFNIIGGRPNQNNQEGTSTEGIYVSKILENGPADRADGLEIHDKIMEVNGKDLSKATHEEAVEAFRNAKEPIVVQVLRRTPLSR
- protocol-summary: holdup assay
- Parameters: key: below the threshold = too weak to quantify, mostly under pKd 3.1 to 4
- setup-conditions: plain residues with an end cap or a label only (N-terminal biotin on a linker: ado-ado)
quantity: pKd

Observe how each entry below is paired with its result.
binder: KAEEKPPSKV [SCN4B, Q8IWT1]
pKd: below the threshold
--
binder: PKSNSSKEYV [CLDN7, O95471]
pKd: below the threshold
--
binder: TNSKQGETTV [FZD1, Q9UP38]
pKd: 4.06
--
binder: MQILSKPEFI [NPSR1, Q6W5P4]
pKd: below the threshold
--
binder: TKDKVQETQI [LRRC4, Q9HBW1]
pKd: 4.6

The binder AHGSTRDQSI [KCNB1, Q14721] showed pKd equal to below the threshold

Lab note: KLQNPNQSVV [TYRP1, P17643] gave pKd of below the threshold

DFKHTKSFII [JAM2, P57087] yielded pKd of below the threshold

Data point: DSEEELPTRL [GRK6, P43250] ; pKd = below the threshold

# pKd of THHRKIHTRV [ZNF599, Q96NL3] = below the threshold

// recorded pKd for QLGSPTADLA [SIPA1, Q96FS4] : below the threshold

The recorded pKd for GDSSRKEYFI [GYPC, P04921] is below the threshold

Form: binder = GVHSNDHSVV [LPAR1, Q92633] ; pKd = below the threshold

Noted for WAKEKQHTRL [SLC17A1, Q14916] : its pKd reads 3.85

pKd measured on YAEKRMLTEV [KCNA6, P17658] = below the threshold

QKNKDREYYV [NRXN3, Q9HDB5] has a reported pKd of below the threshold
